Cited source: the MegaScale stability set (Tsuboyama et al. 2023)

B1: EEHEE_rd4_0363 (parent)
chain: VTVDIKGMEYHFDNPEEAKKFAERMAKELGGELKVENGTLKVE

- Variants of: B1
- Test Protocol: folding stability dG (cDNA display proteolysis); higher = more stable
- Measurement Context: PBS, room temperature
Measured Parameter: folding stability dG
Provide the measurement as a number trailed by its unit.

Task item: May I ask what folding stability dG has been recorded for VTVDIKAMEYHFDNPEEAKKFAERMAKELGGELKVENGTLKVE [G7A] ?
Reply: 0.278 kcal/mol

Task item: May I ask what folding stability dG has been recorded for VTVDIKGMFYHFDNPEEAKKFAERMAKELGGELKVENGTLKVE [E9F] ?
Reply: 2.66 kcal/mol

Task item: May I ask what folding stability dG has been recorded for VTVDIKPMEYHFDNPEEAKKFAERMAKELGGELKVENGTLKVE [G7P] ?
Reply: 0.309 kcal/mol

Task item: May I ask what folding stability dG has been recorded for VRVDIKGMEYHFDNPEEAKKFAERMAKELGGELKVENGTLKVE [T2R] ?
Reply: 1.7 kcal/mol

Task item: May I ask what folding stability dG has been recorded for VTVDIKGMEYHFDNGEEAKKFAERMAKELGGELKVENGTLKVE [P15G] ?
Reply: 1.39 kcal/mol

Task item: May I ask what folding stability dG has been recorded for VTVDIKGMEYHFDNPEEAKKFAERMAKELGLELKVENGTLKVE [G31L] ?
Reply: 2.57 kcal/mol

Task item: May I ask what folding stability dG has been recorded for VTVDIKGMEYHFDNPEEAKKFAERMAKVLGGELKVENGTLKVE [E28V] ?
Reply: 1.88 kcal/mol

Task item: May I ask what folding stability dG has been recorded for VTVDIKGMEYHFDDPEEAKKFAERMAKELGGELKVENGTLKVE [N14D] ?
Reply: 2.33 kcal/mol

Task item: May I ask what folding stability dG has been recorded for VTSDIKGMEYHFDNPEEAKKFAERMAKELGGELKVENGTLKVE [V3S] ?
Reply: 0.004 kcal/mol

Task item: May I ask what folding stability dG has been recorded for VTVDIKGMEYHFDNPEEAKKFAERMAKELGGCLKVENGTLKVE [E32C] ?
Reply: 2.56 kcal/mol

Task item: May I ask what folding stability dG has been recorded for VTVDIKGMEYHFDNPEEAKKFAERMAKELGGALKVENGTLKVE [E32A] ?
Reply: 2.15 kcal/mol

Task item: May I ask what folding stability dG has been recorded for VTVDQKGMEYHFDNPEEAKKFAERMAKELGGELKVENGTLKVE [I5Q] ?
Reply: 0.05 kcal/mol

Task item: May I ask what folding stability dG has been recorded for VTVDIKGMEYHFDYPEEAKKFAERMAKELGGELKVENGTLKVE [N14Y] ?
Reply: 0.952 kcal/mol

Task item: May I ask what folding stability dG has been recorded for VTVDIKGSEYHFDNPEEAKKFAERMAKELGGELKVENGTLKVE [M8S] ?
Reply: 1.55 kcal/mol

Task item: May I ask what folding stability dG has been recorded for VTVDIKGMEYHFDNPEEAKKFAERMAKELGGELKVENGTLKFE [V42F] ?
Reply: 1.02 kcal/mol

Task item: May I ask what folding stability dG has been recorded for VTVDIKGMEYHFDNPEEAKKFAERMAKETGGELKVENGTLKVE [L29T] ?
Reply: 1.37 kcal/mol

Task item: May I ask what folding stability dG has been recorded for VTVDIKGMEYHFDNPYEAKKFAERMAKELGGELKVENGTLKVE [E16Y] ?
Reply: 1.79 kcal/mol

Task item: May I ask what folding stability dG has been recorded for VTVDIKGMEYHFDNPEEAKKFAERMAKELGGELKVENGTAKVE [L40A] ?
Reply: 0.864 kcal/mol

Task item: May I ask what folding stability dG has been recorded for VTVDIKGMEYHFDNPEEAKKFAERMAKELGGELKVENGCLKVE [T39C] ?
Reply: 1.89 kcal/mol

Task item: May I ask what folding stability dG has been recorded for VTVDIKGMEYHFDNPEEAKKFAERMAKELGGELKVGNGTLKVE [E36G] ?
Reply: 1.61 kcal/mol

Task item: May I ask what folding stability dG has been recorded for VTVDIKGMEYHFDNPEEAKKFAERMAKELGGEIKVENGTLKVE [L33I] ?
Reply: 2.48 kcal/mol

Task item: May I ask what folding stability dG has been recorded for VTVDIDGMEYHFDNPEEAKKFAERMAKELGGELKVENGTLKVE [K6D] ?
Reply: 2.92 kcal/mol
